Listed molecules paired with reported inhibition
molecular target: Luciferin 4-monooxygenase (Photinus pyralis) (UniProt P08659); assay: firefly luciferase enzyme inhibitors, primary screen, artefact control for luciferase-based inhibitor screens, biochemical, luminescence, ATPLite (AID 1006); conditions: 10 min, at 10 µM, stronger effect = higher value
Sequence (P08659 whole entry, looked up): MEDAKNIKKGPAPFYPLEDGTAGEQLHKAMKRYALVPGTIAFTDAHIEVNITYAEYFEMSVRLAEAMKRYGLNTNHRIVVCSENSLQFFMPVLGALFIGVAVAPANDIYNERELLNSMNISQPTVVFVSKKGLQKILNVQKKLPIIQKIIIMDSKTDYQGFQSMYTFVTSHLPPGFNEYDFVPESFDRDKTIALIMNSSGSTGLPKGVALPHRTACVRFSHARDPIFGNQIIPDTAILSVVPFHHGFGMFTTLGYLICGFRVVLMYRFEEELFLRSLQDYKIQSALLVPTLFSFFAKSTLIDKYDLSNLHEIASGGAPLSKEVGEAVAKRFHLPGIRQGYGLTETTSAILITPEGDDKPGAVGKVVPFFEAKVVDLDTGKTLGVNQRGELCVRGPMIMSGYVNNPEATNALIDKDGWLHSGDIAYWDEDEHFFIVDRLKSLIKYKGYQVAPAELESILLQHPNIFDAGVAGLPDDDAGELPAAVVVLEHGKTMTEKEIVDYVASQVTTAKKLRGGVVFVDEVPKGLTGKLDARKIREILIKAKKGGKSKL
In all, about 200,000 compounds went through this assay and about 3,000 (1.5%) were called active. The sample as a whole holds a higher share of actives than the screen did.
Your answer should be a plain number; it is taken to be in %.

Some molecules with known inhibition results, for comparison:
molecule | assay.system | scale.unit | readout.value
COc1cccc(C(=O)NNC(=O)c2ccccc2Br)c1 | Luciferin 4-monooxygenase (Photinus pyralis) (UniProt P08659) | % | 2.9
COc1ccc(C2COC(=O)C2=N)c(NC(=O)c2ccccc2)c1 (stereo not drawn) | Luciferin 4-monooxygenase (Photinus pyralis) (UniProt P08659) | % | -6.7
COc1ccc(NC(=O)c2ccc(OC)cc2)cc1 | Luciferin 4-monooxygenase (Photinus pyralis) (UniProt P08659) | % | 63.1
COc1ccc(C(=O)NC(=S)Nc2ccc(N3CCCC3)cc2)cc1OC | Luciferin 4-monooxygenase (Photinus pyralis) (UniProt P08659) | % | -14.5
Cc1cc(C)nc(/N=C2\NC(=O)CC(C(=O)O)N2c2ccc(Cl)cc2Cl)n1 (stereo not drawn) | Luciferin 4-monooxygenase (Photinus pyralis) (UniProt P08659) | % | -5.6
CCN(C(=O)COC(=O)c1cc(S(=O)(=O)N2CCc3ccccc32)ccc1OC)C1CCS(=O)(=O)C1 (stereo not drawn) | Luciferin 4-monooxygenase (Photinus pyralis) (UniProt P08659) | % | -6.8

Documented inhibition of Cc1noc(C)c1COc1ccc2ccc(=O)oc2c1 : -2.2

Documented inhibition of CSc1nc2ccc(NC(=O)c3c(F)cccc3F)cc2s1 : 12.4

###

molecular target: Luciferin 4-monooxygenase (Photinus pyralis) (UniProt P08659); assay: firefly luciferase enzyme inhibitors, primary screen, artefact control for luciferase-based inhibitor screens, biochemical, luminescence, ATPLite (AID 1006); details: 10 min, at 10 µM
About 3,000 (1.5%) of roughly 200,000 compounds were called active.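 How the source made its calls: active means inhibition above about 50% when tested at 10 µM (limit read from the data); inactive means the rest.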 The sample holds actives, similar compounds and a random draw of the others, so the mix is not that of the screen.
Form entry, call: pick from true (1) = active, false (0) = inactive

Observe how each entry below is paired with its result.
compound | answer.label
O=C(NCCc1ccc(F)cc1)c1n[nH]c2ccccc12 | false (0)
CN(C)/C=C(/C(=O)c1ccccc1)S(=O)(=O)c1ccc(Cl)cc1 | false (0)
COc1cccc(CNC(=O)c2n[nH]c3ccccc23)c1 | true (1)

(Q) What did the test return for COc1ccc(C/C(N)=N/OC(=O)c2ccco2)cc1OC ?
(A) false (0)

(Q) What did the test return for Cc1ccc(-c2noc(CCC(N)=O)n2)cc1 ?
(A) false (0)

(Q) What did the test return for CC(OC(=O)c1ccc2ccccc2n1)C(=O)c1ccccc1 (stereo not drawn) ?
(A) true (1)

(Q) What did the test return for OCCCN1c2ccccc2Nc2nnc(-c3ccccc3)cc21 ?
(A) true (1)

(Q) What did the test return for COc1ccc(C(=O)COC(=O)c2ccc3ccccc3n2)cc1 ?
(A) false (0)

###

target: Luciferin 4-monooxygenase (Photinus pyralis) (UniProt P08659); experiment: firefly luciferase enzyme inhibitors, primary screen, artefact control for luciferase-based inhibitor screens, biochemical, luminescence, ATPLite (AID 1006); settings: 10 min, at 10 µM, stronger effect = higher value
Screen size: about 200,000 compounds; about 3,000 (1.5%) were called active. The sample as a whole holds a higher share of actives than the screen did.
Listed compounds paired with reported inhibition
Your answer should be a plain number; it is taken to be in %.

Some compounds with known inhibition results, for comparison:
compound | assay.system | scale.unit | readout.value
COc1cc(C(=S)N2CCOCC2)ccc1O | Luciferin 4-monooxygenase (Photinus pyralis) (UniProt P08659) | % | -1
Cc1ccccc1N/N=C/c1ccc(N2CCOCC2)cc1 | Luciferin 4-monooxygenase (Photinus pyralis) (UniProt P08659) | % | -3.5
Cn1cc([N+](=O)[O-])c(C(=O)Nc2cnn(Cc3ccc(F)cc3)c2)n1 | Luciferin 4-monooxygenase (Photinus pyralis) (UniProt P08659) | % | -8.5
CCN(CC)c1ccc(C(=O)N/N=C/c2ccc(N3CCOCC3)cc2)cc1 | Luciferin 4-monooxygenase (Photinus pyralis) (UniProt P08659) | % | -7
Cc1nnc(N/N=C/C2CC=CCC2)[nH]c1=O (stereo not given) | Luciferin 4-monooxygenase (Photinus pyralis) (UniProt P08659) | % | -4

Documented inhibition of O=c1c2c(nc3cc(-c4cccc(Cl)c4)[nH]n13)CCCC2 : 74.9

Documented inhibition of Brc1ccc2nc(N3CCCC3)sc2c1 : 35.9

Documented inhibition of CC(C)=CCN1CCN(Cc2ccc(Oc3ncccn3)cc2)CC1CCO (stereo not given) : -0.1

Documented inhibition of Cn1cc(CCC(=O)N2CCCC(C(=O)c3ccc(C(C)(C)C)cc3)C2)cn1 (stereo not given) : 1.3

Documented inhibition of COc1cc(/C=N/Nc2nn3cnnc3c3ccccc23)cc(OC)c1OC : 84.1
